run description: antimalarial activity against Dd2 strain (AID 2302);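 note: 0% = DMSO untreated growth and 100% = chloroquine plus artemisinin killed control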
experimental setup: P. falciparum Dd2 in RBCs, LDH growth readout, 72 h; at 2 µM; stronger effect = higher value
Respond with T for growth inhibition values of 90% and above, F for values below.

Sample answers from the record:
compound | qualitative label
CN(c1cc(NC(=O)c2cccs2)ccn1)C1CCN(Cc2cccc(F)c2)CC1 | T
CCN(Cc1ccccc1)CC(O)c1ccc(Cl)c(Cl)c1 (centres undefined) | F
COc1cc(CC(C)NCC(O)c2cccc(C(F)(F)F)c2)ccc1OCc1ccccc1 (centres undefined) | F
O=C(NCCCCN1CCC(c2ccc3c(c2OCCO)CCCC3)CC1)c1sc(-c2ccc(C(F)(F)F)cc2)nc1CO | F
COc1ccc(CCNCc2ccc3c(C)cc(N)nc3c2)cc1 | F
O=C(/C=C/c1ccc(Cl)c(Cl)c1)NC1CCC(CN2CCC(c3c[nH]c4cc(O)ccc34)CC2)CC1 (centres undefined) | T
CC[C@H]1CN2CC[C@@H]1C[C@H]2[C@H](O)c1ccnc2ccc(Cl)cc12 | T
CC1(C)CCCN(C(=O)Cc2ccc3c(c2)CCCC3)C1CN1CC=CC1 (centres undefined) | F

Data request: Check this compound for growth inhibition at or above 90%: COc1cc(NC(=O)c2nn(CCCN3CCC4(CC3)C(=O)NCN4c3ccccc3)cc2-c2ccc(Cl)c(Cl)c2)cc(OC)c1OC
Data returned: F

----------
run description: protection against mutant huntingtin cytotoxicity, PC12 cells, LDH release (AID 1610)
experimental setup: PC12 mutant huntingtin toxicity, final LDH at 4 uM, stronger effect = lower value
Inconclusive results are not listed.
Reported normalised LDH release by item:
No unit in the answer, please; the number alone is enough.

Please review the following examples before continuing.
molecule | normalised LDH release
O=c1c2ccccc2[se]n1-c1ccccc1 | 0.64
COC12CC[C@@]3(C[C@@H]1C(C)(O)C(C)(C)C)[C@H]1Cc4ccc(O)c5c4[C@@]3(CCN1CC1CC1)[C@H]2O5 (stereo not given in full) | 1.01
CC(C)=CCCC1(C)C=Cc2c(O)c3c(c(CC=C(C)C)c2O1)OC12C(=CC4CC1C(C)(C)OC2(C/C=C(/C)C(=O)O)C4=O)C3=O (stereo not given) | 0.491
Oc1cccc2cccnc12 | 1

// below: normalised LDH release requested for another molecule
Data request: Bench note: what normalised LDH release did C[C@@]1(C(=O)O)CC[C@]2(C)CC[C@]3(C)C4=CC=C5C=C(O)C(=O)C=C5[C@]4(C)CC[C@@]3(C)[C@@H]2C1 show?
Data returned: 0.996

----------
run description: viability rescue of complex I mutant cybrids, primary screen, cell-based, galactose medium, ATP luminescence (AID 1645843);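 note: positive z means more ATP and so rescue of galactose-driven cybrid death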
experimental setup: complex I mutant cybrid cells, 72 h, stronger effect = higher value
property measured: z-score
Enter the number alone.

compound | val
C/C=C/N1CC[C@]23CCCC[C@H]2[C@H]1Cc1ccc(O)cc13 | 0.26
CC(C)(O)C1C2OC(=O)C1[C@]1(O)CC3O[C@]34C(=O)OC2[C@]14C (some centres undefined) (tested in a mixture with another compound) | 0.86
CC(C)(C)OC(=O)c1ncn2c1[C@@H]1CCCN1C(=O)c1c(Br)cccc1-2 | -0.115

Data request: I'd like to know its z-score. The compound in question is COC(=O)/C=C/C(=O)N[C@@H]1CC[C@@]2(O)[C@H]3Cc4ccc(O)c5c4[C@@]2(CCN3CC2CC2)[C@H]1O5
Data returned: -0.405
